Recorded values, source PubChem BioAssay (NCI).

# System: NCI-H226 lung
# ASSAY NOTES: NCI tumour cell line growth inhibition, 48 h
Measured TGI, listed per entry for reference.

- COMPOUND: "CC(C)=CCC/C(C)=C/C=C/C(C)=C/C=C/C(C)=C/C=C/C=C(C)/C=C/C=C(C)/C=C/[C@H]1C(C(C)(C)O)CC[C@]1(C)O (some centres not stated)"
  TGI: "> 100 µM"
- COMPOUND: "O=C1/C(=C/c2ccc([N+](=O)[O-])cc2)C(=O)N(c2ccccc2)C1c1ccccc1 (configuration not stated)"
  TGI: "> 10 µM"
- COMPOUND: "COc1cc(/C=C(\\C#N)C(N)=O)cc(Br)c1O"
  TGI: "> 100 µM"
- COMPOUND: "CCCCCCCC/C=C/CCCCCCCC(=O)OC[C@H]1O[C@@H](n2ccc(N)nc2=O)C(F)(F)[C@@H]1O"
  TGI: "> 61.3 µM"
- COMPOUND: "NS(=O)(=O)c1ccc(N=Nc2c(O)[nH]c3ccc(-c4cnco4)cc23)cc1"
  TGI: "> 25 µM"
- COMPOUND: "Oc1c(CN2CCOCC2)ccc2cccnc12"
  TGI: "> 10 µM"
- COMPOUND: "CCOC(=O)c1nc2ccc(C(F)(F)F)cc2nc1NCc1cc(OC)c(OC)c(OC)c1"
  TGI: "> 100 µM"
- COMPOUND: "CC(=O)[O-].CCN(CC)c1ccc(C=NCCN=Cc2ccc(N(CC)CC)cc2[O-])c([O-])c1.[Mn+3]"
  TGI: "> 100 µM"
- COMPOUND: "Cc1cc(S(=O)(=O)N=C2N(Cc3ccccc3)CCN2Cc2ccccc2)c(S)cc1Cl"
  TGI: "> 100 µM"
- COMPOUND: "O=C(N/N=C/c1ccccc1)c1c(-c2cccnc2)cnc2ccccc12"
  TGI: "> 100 µM"
- COMPOUND: "COc1ccc(C(=C(Cl)c2ccccc2)c2ccc(OC)cc2)cc1"
  TGI: "> 100 µM"
- COMPOUND: "CCN(CC)CCNc1nc2ccc([N+](=O)[O-])cc2[n+]([O-])n1"
  TGI: "> 100 µM"
- COMPOUND: "CCOP(C)(=O)C(N)Cc1ccc(OC)c(OC)c1 (configuration not stated)"
  TGI: "> 100 µM"
- COMPOUND: "COc1ccc(/C=C/c2ccnc3ccccc23)c(OC)c1"
  TGI: "> 10 µM"
- COMPOUND: "O=C1CSC(c2cccc(Oc3ccccc3)c2)N1c1ccc(Cl)cc1 (configuration not stated)"
  TGI: "> 100 µM"
- COMPOUND: "NCCCCN(CCCN)/[N+]([O-])=N\\O"
  TGI: "> 100 µM"
- COMPOUND: "O=Cc1c(C(=O)O)[nH]c(=O)[nH]c1=O"
  TGI: "> 100 µM"
- COMPOUND: "CC(=O)/C(C)=N/NC(=O)c1ccccc1O"
  TGI: "> 100 µM"
- COMPOUND: "OC[C@H]1CCCC1O (some centres not stated)"
  TGI: "> 100 µM"
- COMPOUND: "COC(=O)C1=C(C)N(NC(=O)OC(C)(C)C)C(=O)C1=P(c1ccccc1)(c1ccccc1)c1ccccc1"
  TGI: "> 100 µM"
- COMPOUND: "Cc1nc(-c2cc3cc([N+](=O)[O-])ccc3oc2=O)cs1"
  TGI: "> 100 µM"
- COMPOUND: "COc1cc(Cn2c3c(c4cc(O)ccc42)Cc2ccccc2C3=O)cc(OC)c1"
  TGI: "> 100 µM"
